- System: A673/TR/shEF
- protocol_notes: cell viability (LOESS-normalised, relative to median of negative controls) (log2 ratio); higher = more viable cells (less compound effect), active = hit call of the paper (over 3 MAD below the median)
- cond: 0.025 µM; library screen: screen1; EWS-FLI1 expression: low (doxycycline-induced shRNA knockdown); treatment time: 72 h
Hit rate of the full screen: of about 3,200 compounds, about 300 (9.4%) showed activity. The full list was thinned out, with actives kept by preference.
// assign Satisfied if cell viability (log2) falls strictly below -0.006, else Not satisfied (ties count as Not satisfied)

Solved cases below.
>  <compound>
O=C(O)c1cc(N(Cc2ccccc2O)Cc2cc(O)ccc2O)ccc1O

>  <discrete_label>
Not satisfied

$$$$
>  <compound>
Cc1ccc(-c2nn(C(C)(C)C)c3ncnc(N)c23)cc1

>  <discrete_label>
Not satisfied

$$$$
>  <compound>
C[S+]([O-])c1ccc(-c2nc(-c3ccc(F)cc3)c(-c3ccncc3)[nH]2)cc1 (stereo unspecified)

>  <discrete_label>
Not satisfied

$$$$
>  <compound>
N#C/C(=C\c1ccc(O)c(O)c1)C(=O)Nc1ccccc1

>  <discrete_label>
Satisfied

$$$$
>  <compound>
Oc1cc(O)cc(/C=C/c2ccc(O)c(O)c2)c1

>  <discrete_label>
Not satisfied

$$$$

Task: # check: cell viability (log2) < -0.006 for `O=c1cc(N2CCOCC2)oc2c(-c3ccccc3)cccc12`
Output: Not satisfied

Task: # check: cell viability (log2) < -0.006 for `O=C1c2ccccc2-c2n[nH]c3cccc1c23`
Output: Not satisfied

Task: # check: cell viability (log2) < -0.006 for `CC(C)(C)n1nc(-c2ccc(Cl)cc2)c2c(N)ncnc21`
Output: Satisfied

Task: # check: cell viability (log2) < -0.006 for `N#C/C(=C\c1ccc(O)c(O)c1)C(=O)NCc1ccccc1`
Output: Not satisfied

Task: # check: cell viability (log2) < -0.006 for `COc1cccc(-c2cc(=O)c3ccccc3o2)c1N`
Output: Satisfied

Task: # check: cell viability (log2) < -0.006 for `CC(C)c1cc(/C=C(\C#N)C(=O)NCCCc2ccccc2)cc(C(C)C)c1O`
Output: Not satisfied

---

- Test system: A673/TR/shEF
- protocol_notes: cell viability (LOESS-normalised, relative to median of negative controls) (log2 ratio); higher = more viable cells (less compound effect), active = hit call of the paper (over 3 MAD below the median)
- cond: 0.926 µM; library screen: screen3; EWS-FLI1 expression: low (doxycycline-induced shRNA knockdown); treatment time: 72 h
Hit rate of the full screen: of about 3,200 compounds, about 300 (9.4%) showed activity. For the sample, actives were picked, then their nearest neighbours and some compounds at random.
cell viability (log2): recorded values
The answer should be written as a number, with no unit following it.

# count of solved cases: 2
>  <molecule>
CN1CCN(CCOc2cc(OC3CCOCC3)c3c(Nc4c(Cl)ccc5c4OCO5)ncnc3c2)CC1

>  <subject_of_test>
A673/TR/shEF

>  <cell viability (log2)>
0.0267

$$$$
>  <molecule>
COCCn1c2c([n+](Cc3cnccn3)c1C)C(=O)c1ccccc1C2=O

>  <subject_of_test>
A673/TR/shEF

>  <cell viability (log2)>
-4.06

$$$$

Task: Endpoint output: cell viability (log2) of `CNC[C@H](O)c1ccc(O)c(O)c1` . Value?
Output: 0.0893

Task: Endpoint output: cell viability (log2) of Clc1ccc(COC(Cn2ccnc2)c2ccc(Cl)cc2Cl)c(Cl)c1 (centres undefined) . Value?
Output: 0.0737

Task: Endpoint output: cell viability (log2) of `CCN(CC)C(=S)SSC(=S)N(CC)CC` . Value?
Output: -2.11

Task: Endpoint output: cell viability (log2) of C[C@@H]1C/C=C/C=C/C=C/C=C/[C@H](OC2O[C@H](C)[C@@H](O)[C@H](N)[C@@H]2O)C[C@@H]2O[C@](O)(C[C@@H](O)C[C@H]3O[C@@H]3/C=C/C(=O)O1)C[C@H](O)[C@H]2C(=O)O (some centres undefined) . Value?
Output: 0.0938

Task: Endpoint output: cell viability (log2) of `O=C1c2c(O)ccc(O)c2C(=O)c2c(NCCNCCO)ccc(NCCNCCO)c21` . Value?
Output: -0.325

Task: Endpoint output: cell viability (log2) of `Nc1nc(Cl)nc2c1ncn2[C@H]1C[C@H](O)[C@@H](CO)O1` . Value?
Output: 0.0591

Task: Endpoint output: cell viability (log2) of `CC1(COc2ccc3c(c2)ncn3-c2ccc3cccc(N4CCC(N)CC4)c3n2)COC1` . Value?
Output: 0.0302
